Just for reference, PubChem BioAssay is where these values come from.

Study system: Follistatin-related protein 3 (Homo sapiens) (UniProt O95633)
Sequence (O95633 whole entry, looked up): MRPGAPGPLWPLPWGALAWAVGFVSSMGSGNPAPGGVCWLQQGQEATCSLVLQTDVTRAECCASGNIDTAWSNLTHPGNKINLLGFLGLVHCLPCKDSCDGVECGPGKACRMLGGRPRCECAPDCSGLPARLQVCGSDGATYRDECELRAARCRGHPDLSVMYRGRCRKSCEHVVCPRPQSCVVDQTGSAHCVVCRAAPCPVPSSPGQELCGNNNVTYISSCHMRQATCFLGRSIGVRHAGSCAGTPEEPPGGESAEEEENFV
Experiment description: compounds binding follistatin-related protein 3 – biochemical, small-molecule microarray, 635 nm fluorescence, primary screen (AID 1105);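 further: score merges emission near 667 nm and signal to noise per printed spot across three slides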
Condition parameters: FSTL3 binding, higher = more signal
Measure: composite z-score
Just the number, please.

# input Which composite z-score is listed for "COC(=O)C(CC#Cc1ccc2c(c1)[C@]1(C(=O)N2)[C@H](c2ccc(O)cc2)N2[C@H](c3ccccc3)[C@H](c3ccccc3)OC(=O)[C@H]2[C@@H]1C(=O)N1CCN(c2ncccn2)CC1)C(=O)OC" ?
# output 0.655

# input Now try CN1C(=O)C2C=CC(C(O)c3ccccc3)N(N3CCCCC3)C2C1=O (stereo unspecified) .
# output 0.494

# input Same thing, different molecule: "CC(C)Cc1ccc(CN2CC[C@@H](N)C2)cc1"
# output -0.431

# input Try this molecule too: "O=C1N(CCS(=O)(=O)c2ccccc2)c2ccccc2[C@@H]2OC(c3ccc(OCCCO)cc3)=N[C@]12Cc1ccccc1"
# output 1.29

# input Cool, now "COCC(=C=CC[C@H](O)c1cccc(OCCO)c1)CCO"
# output 0.688

# input Quick one: CS(=O)(=O)CCOC(=O)C1=CC(CCCO)=CC(c2ccc(CN3CCCC3)cc2)N(Cc2cccc(OC(F)(F)F)c2)C=C1C(=O)OCCS(C)(=O)=O (stereo unspecified)
# output 0.945

# input Now give it for CCCCN1CC=CC23O[C@@H]4/C=C\CCCOC(=O)C4[C@H]2C(=O)N(CCCCCO)[C@@H]3C1=O (stereo partly specified) too.
# output -1.08

# input Item: O=C1NC(=O)C2C1C=CC(C(O)c1ccc(I)cc1)N2Nc1ccc(Cl)cc1Cl (stereo unspecified)
# output 0.425

# input Quick one: "COC(=O)[C@@]1(Cc2ccc(F)cc2)[C@H]2c3cc(C(=O)N(C)C)n(Cc4ccc(C)o4)c3C[C@H]2CN1C(=O)c1ccccc1"
# output -1.13

# input Then "NC(=O)[C@@H]1[C@H]2C(=O)O[C@H](c3ccccc3)[C@H](c3ccccc3)N2[C@H](c2ccc(OCCO)cc2)[C@@]12C(=O)Nc1ccc(C#CC3=CCCCC3)cc12" ?
# output 0.588

# input Same thing, different molecule: "O=C(O)[C@H](Cc1ccccc1)n1cc(-c2ccccc2)nn1"
# output 0.179

# input Field entry: "Cc1ccc(S[C@]2(C(=O)NCC(C)C)CC(=O)N(Cc3cc(C(F)(F)F)cc(C(F)(F)F)c3)[C@@H]2c2ccc(CO)cc2)cc1"
# output -0.634

# input Try "COCCCNC(=O)[C@@]1(CCS(=O)(=O)c2ccccc2)N=C(c2ccc(OCCCO)cc2)O[C@H]1c1ccccc1N=[N+]=[N-]" next.
# output 1.25

# input Another molecule to check: "CC(=O)NCCCC[C@@H]1NC(=O)[C@H]2C[C@@H](C(=O)NCCCCCNC(=O)CS)[C@@H](c3ccc(O)cc3)N2C1=O"
# output -0.84

# input "COC(=O)[C@@]1(Cc2ccc(F)cc2)[C@H]2c3cc(C(=O)N(C)C)n(Cc4cc(C)n(C)n4)c3C[C@H]2CN1C(=O)c1ccccc1" ?
# output 0.386

# input Param item: CC=CC(O)C1C=CC2C(=O)N(C)C(=O)C2N1N(c1ccccc1)c1ccccc1 (stereo unspecified)
# output -0.315

====

Test system: wheat germ agglutinin (Triticum aestivum), Alexa647-labelled
Experiment description: Alexa647-WGA lectin binding to printed small molecules – biochemical, small-molecule microarray, 635/667 nm fluorescence, artefact control for SMM control-protein annotation, profiling panel (AID 1140);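 further: score merges 667 nm feature emission with signal to noise over triplicate slides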
Condition parameters: WGA-A647 binding, 635 nm fluorescence, higher = more signal
Consider the following molecules; for each one, report its composite z-score.
Please state the value as a number alone, without comment.

# input Would you kindly share the measured composite z-score for "COCCOC(=O)N1C(=O)[C@@]2(c3ccccc31)[C@H](C(=O)N1CCCCCCC1)[C@H]1C(=O)O[C@H](c3ccccc3)[C@H](c3ccccc3)N1[C@@H]2c1ccc(OCCO)cc1" ?
# output 1.74

# input # repeat for CS(=O)(=O)CCOC(=O)C1=CC(CCCO)=CC(c2ccc(CN3CCCC3)cc2)N(Cc2cccc(OC(F)(F)F)c2)C=C1C(=O)OCCS(C)(=O)=O (configuration not stated)
# output 0.404

# input Also check "COCC(=C=CC[C@H](O)c1ccccc1OCCO)CCO"
# output 1.14

# input Please answer likewise for "O=C1C[C@@](C(=O)NCc2ccccc2)(c2ccc([N+](=O)[O-])cc2)[C@@H](c2ccc(CO)cc2)N1CC12CC3CC(CC(C3)C1)C2"
# output 0.162

# input Entry to check: "C#CCNCc1ccccc1"
# output -0.219

# input Let us now turn to "COCCCNC(=O)[C@@]1(Sc2ccc(C)cc2)CC(=O)N(Cc2ccccc2Cl)[C@@H]1c1ccc(CO)cc1"
# output 0.966

# input One more molecule: "C=CCNC(=O)[C@@H]1[C@H]2C(=O)O[C@H](c3ccccc3)[C@H](c3ccccc3)N2[C@H](c2ccc(OCCO)cc2)[C@@]12C(=O)N(C(=O)OCCOC)c1ccc(C#CCNC(N)=O)cc12"
# output 0.94

====

Experiment description: basal CRE-LacZ reporter activity in PC12 – cell-based, unstimulated, primary screen (AID 1145)
Condition parameters: no forskolin, luminescence, 4.5 h, higher = more signal, called active from +8 up or from −8 down
Measure: z-score
Give only the figure.

# input For the molecule OCCCC1=CC(C2CC2)N(Cc2cccc(OC(F)(F)F)c2)CC1 (centres undefined) , what z-score is on record?
# output 0.0882

# input "O=C1[C@H]2C=C(Br)[C@H](C[C@@H]2OCCCCCCO)[C@@]12CO2" ?
# output 0.577

# input "COC(=O)C(CC#Cc1ccc2c(c1)[C@]1(C(=O)N2)[C@H](c2ccccc2OCCO)N2[C@H](c3ccccc3)[C@H](c3ccccc3)OC(=O)[C@H]2[C@@H]1C(N)=O)C(=O)OC" ?
# output -0.0515

# input Try this molecule too: COc1ccc(C(O)C2C=CC3C(=O)N(C)C(=O)C3N2NC(=O)OC(C)(C)C)c2ccccc12 (centres undefined)
# output 1.58

====

Study system: Focal adhesion kinase 1 (Homo sapiens) (UniProt Q05397)
Sequence (Q05397 whole entry, looked up): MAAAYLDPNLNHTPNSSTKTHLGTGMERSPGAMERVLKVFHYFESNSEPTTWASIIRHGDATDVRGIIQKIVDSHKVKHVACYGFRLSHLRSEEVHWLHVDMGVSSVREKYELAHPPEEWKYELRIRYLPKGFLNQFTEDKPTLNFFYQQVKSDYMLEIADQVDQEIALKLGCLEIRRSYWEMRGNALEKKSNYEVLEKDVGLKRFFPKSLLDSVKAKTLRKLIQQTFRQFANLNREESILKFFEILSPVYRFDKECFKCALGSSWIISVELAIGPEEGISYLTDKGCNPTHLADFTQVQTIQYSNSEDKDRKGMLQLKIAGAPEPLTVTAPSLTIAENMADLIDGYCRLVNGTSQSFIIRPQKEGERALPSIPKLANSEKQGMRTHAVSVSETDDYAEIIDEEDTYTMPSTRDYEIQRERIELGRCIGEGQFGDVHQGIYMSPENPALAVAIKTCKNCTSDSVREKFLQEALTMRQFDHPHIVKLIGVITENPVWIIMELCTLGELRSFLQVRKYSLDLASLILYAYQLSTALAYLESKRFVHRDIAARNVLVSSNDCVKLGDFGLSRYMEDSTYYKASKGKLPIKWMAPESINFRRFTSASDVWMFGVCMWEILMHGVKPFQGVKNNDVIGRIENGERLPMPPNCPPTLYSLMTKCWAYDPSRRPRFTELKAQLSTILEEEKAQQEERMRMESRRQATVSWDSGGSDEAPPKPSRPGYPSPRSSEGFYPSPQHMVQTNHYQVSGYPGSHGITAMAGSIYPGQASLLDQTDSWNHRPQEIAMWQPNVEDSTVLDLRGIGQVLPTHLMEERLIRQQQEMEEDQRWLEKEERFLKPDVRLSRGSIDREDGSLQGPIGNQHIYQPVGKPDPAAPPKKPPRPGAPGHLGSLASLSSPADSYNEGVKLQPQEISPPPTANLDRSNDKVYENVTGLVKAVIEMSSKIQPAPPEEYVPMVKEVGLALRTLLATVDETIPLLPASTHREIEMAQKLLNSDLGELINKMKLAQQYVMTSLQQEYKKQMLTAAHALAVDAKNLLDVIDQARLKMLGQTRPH
Experiment description: PTK2 protein binding on printed compound slides – biochemical, small-molecule microarray, 635/667 nm fluorescence, BSA, DTT, primary screen (AID 1130);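 further: composite of spot emission at 667 nm and signal to noise over triplicate slides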
Condition parameters: 635 nm fluorescence, higher = more signal
For each of the molecules below, state its composite z-score.

# input Query: composite z-score; subject: "COc1ccc([Si](C)(C)[C@H]2[C@H](CC(=O)N3CCC[C@H]3CO)O[C@@]3(C(=O)N(Cc4cccc(N5CCOC5=O)c4)c4ccccc43)[C@@H]2C)cc1"
# output 0.266

# input Then "COCCOC(=O)N1C(=O)[C@@]2(c3cc(C#CC4(O)CCCCCC4)ccc31)[C@H](c1ccccc1OCCO)N1[C@H](c3ccccc3)[C@H](c3ccccc3)OC(=O)[C@H]1[C@@H]2C(=O)N1CCc2cc(OC)c(OC)cc2C1" ?
# output 0.669

# input What would you report for CCOC(=O)C1=CCC(c2ccc(F)cc2)N(S(=O)(=O)c2ccc(C)cc2)C1 (stereo not given) ?
# output 1.52

# input Also check COc1ccc(NN2C(C(O)c3ccc(N(C)C)cc3)C=CC3C(=O)N(C4CCCCC4)C(=O)C32)cc1 (stereo not given)
# output 0.465

# input And for O=C1OCC=C[C@H]2OC34C=CCN(CCN5CCOCC5)C(=O)[C@H]3N(CCO)C(=O)[C@@H]4[C@@H]12 (stereo not given in full) ?
# output -0.133

# input Entry to check: "CCCC(=O)N(CCc1c[nH]c2ccccc12)[C@@H]1CC(C(=O)NCCO)=C[C@H](Oc2c(I)cc(CO)cc2OC)[C@H]1O"
# output -0.185

# input Subsequent entry: "COC(=O)[C@]1(CCC(=O)OC(C)(C)C)N=C(c2ccc(OCCCO)cc2)O[C@@H]1c1ccccc1"
# output -0.239

# input Please give the result for "C[N+](C)(C)CCCC[C@@H]1NC(=O)[C@H]2C[C@@H](C(=O)NCCCCCCNC(=O)CS)[C@@H](c3ccc(O)cc3)N2C1=O" too.
# output -0.103

# input Next record, please: "CCCC[C@H]1C[C@@H]1[C@@H]1N(P(=O)(c2ccccc2)c2ccccc2)C[C@@](O)(c2ccccc2)CC12CC2"
# output 0.663

# input Now consider "COCC(=C=CC[C@@H](O)c1ccc(OCCO)cc1)C[C@@H](O)c1ccccn1" and answer again.
# output 0.359

# input And the next one, "O=C1O[C@H](c2ccccc2)[C@H](c2ccccc2)N2[C@H]1[C@@H](C(=O)N1CCN(c3ncccn3)CC1)[C@]1(C(=O)Nc3ccc(C#CC4=CCCCC4)cc31)[C@H]2c1ccccc1OCCO" ?
# output 0.543

# input Ok, now "CO[C@H]1O[C@H](CO)[C@@H](OC(=O)Nc2cccc(F)c2)[C@H](OC(=O)Nc2ccccc2)[C@H]1OC(=O)Nc1ccccc1"
# output 0.656

# input Query [N-]=[N+]=Nc1ccccc1C[C@]1(C(=O)NCC(O)CO)N=C(c2ccc(OCCCO)cc2)O[C@H]1c1ccccc1 (stereo not given in full) next
# output 0.0141

# input Consider next the molecule "CC(=O)NCCCC[C@@H]1NC(=O)[C@H]2C[C@@H](C(=O)O)[C@@H](c3ccc(O)cc3)N2C1=O" in the same way.
# output 0.626

# input Now consider "COc1ccc([Si](C)(C)[C@H]2[C@H](CCn3cc([C@H](O)c4ccccc4)nn3)O[C@@]3(C(=O)N(C)c4ccccc43)[C@@H]2C)cc1" and answer again.
# output 0.254

# input Now try "CO[C@H]1O[C@H](CO)[C@@H](OC(=O)Nc2ccc(Br)cc2)[C@@H]2OC(=O)[C@H](Cc3cccc(Br)c3)C/C=C/C[C@@H](Cc3cccc(Br)c3)C(=O)O[C@@H]12" .
# output 0.2

# input Next: "C=C(CCCC)/C(=C/C[C@@H](OC(C)=O)c1cccc(OCCO)c1)c1cnc2ccccc2c1"
# output -0.0542

# input Moving on to the next molecule: "COCCCNC(=O)[C@@]1(CCS(=O)(=O)c2ccccc2)N=C(c2ccc(OCCCO)cc2)O[C@H]1c1ccccc1N=[N+]=[N-]"
# output -0.0191

# input # iterate: O=C1C2C=CC(C(O)c3c(F)cccc3Cl)N(Nc3ccccc3F)C2C(=O)N1c1ccccc1 (stereo not given)
# output 0.631

# input Repeat for the following molecule: "CCCCC(=C=CC[C@@H](O)c1ccc(CO)o1)CCO"
# output -0.347

# input Follow-up item: "O=C1O[C@@H](c2ccccc2)[C@@H](c2ccccc2)N2[C@@H](c3ccccc3OCCO)[C@]3(C(=O)Nc4ccc(C#CC5(O)CCCCCC5)cc43)[C@@H](C(=O)N3CCN(c4ncccn4)CC3)[C@H]12"
# output 0.564

# input Likewise for "C=CC[C@@]1(C(=O)N2CCCCC2)N=C(c2ccc(OCCCO)cc2)O[C@@H]1c1ccccc1CN=[N+]=[N-]" ?
# output 0.398

# input Next: "C=CC[C@]1(C(=O)N2CCOCC2)N=C(c2ccc(OCCCO)cc2)O[C@H]1c1ccccc1N=[N+]=[N-]"
# output 0.804

# input Next molecule: CCCCN1CC=CC23O[C@@H]4/C=C\CCCOC(=O)C4[C@H]2C(=O)N(CCCO)[C@@H]3C1=O (stereo not given in full)
# output -0.226

# input Try the molecule "[N-]=[N+]=Nc1ccccc1[C@H]1OC(c2ccc(OCCCO)cc2)=N[C@@]1(Cc1ccccc1)C(=O)N1CCOCC1"
# output 0.68

# input Try O=C1NC(=O)C2C1C=CC(C(O)c1ccc(-c3ccccc3)s1)N2Nc1ccc(Cl)cc1Cl (stereo not given) next.
# output 1.06

# input How about this molecule: "O=C1[C@H]2C=C(I)[C@H](C[C@@H]2OCCCCO)[C@@]12CO2"
# output 0.465

# input Moving on to CCCCC(O)C1C=CC2C(=O)N(C)C(=O)C2N1N1CCCCC1 (stereo not given)
# output 0.367

# input Try the molecule CN1CCC(CCCO)=CC1c1cccs1 (stereo not given)
# output -0.698

# input Further, for CCC(CC)C(O)C1C=CC2C(=O)N(c3ccccc3)C(=O)C2N1Nc1ccccc1 (stereo not given) ?
# output 0.633
